- Measured On: hEP4 (Homo sapiens, UniProt P35408)
- Sequence (P35408 whole entry): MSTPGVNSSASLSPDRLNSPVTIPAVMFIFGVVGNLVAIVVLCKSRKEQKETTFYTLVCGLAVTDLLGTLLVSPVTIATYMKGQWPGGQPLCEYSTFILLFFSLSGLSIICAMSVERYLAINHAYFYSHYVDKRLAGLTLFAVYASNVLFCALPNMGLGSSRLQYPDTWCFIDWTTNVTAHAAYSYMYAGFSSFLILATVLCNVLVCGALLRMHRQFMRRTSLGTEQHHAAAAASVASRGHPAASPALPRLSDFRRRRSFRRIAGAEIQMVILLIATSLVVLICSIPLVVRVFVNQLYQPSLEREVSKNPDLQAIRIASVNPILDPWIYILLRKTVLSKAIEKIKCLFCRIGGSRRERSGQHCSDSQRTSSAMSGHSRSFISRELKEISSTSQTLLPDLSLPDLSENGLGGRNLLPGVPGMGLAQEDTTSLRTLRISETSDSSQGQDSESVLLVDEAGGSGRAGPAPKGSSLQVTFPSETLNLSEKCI
- Run Description: FLIPR calcium signal, hEP4
- Assay Setup: HEK-293(EBNA) cells expressing hEP4/Gqs5
Measured Metric: EC50 (µM)

See these solved cases before continuing.
Task item: Please give the measured EC50 for this compound: O=C(O)CCC/C=C\C[C@@H]1[C@@H](COc2cccc(OC(=O)c3ccccc3)c2)[C@H](O)C[C@H]1Cl [Example 29]
Reply: 7.68

Task item: Which EC50 is reported for this compound? O=C(O)CCC/C=C\C[C@@H]1[C@@H](COc2cccc3ccccc23)[C@H](O)C[C@H]1Cl [Example 19]
Reply: 0.115

Task item: Quick check: EC50 of O=C(O)CCC/C=C\C[C@@H]1[C@@H](COc2ccccc2CO)[C@H](O)C[C@H]1Cl [Example 55] ?
Reply: 12.3

P. O=C(O)CCC/C=C\C[C@@H]1[C@@H](COc2ccc(Cl)c3ccccc23)[C@H](O)C[C@H]1Cl [Example 40]
Q. COc1cccc(OC[C@@H]2[C@@H](C/C=C\CCCC(=O)O)[C@H](Cl)C[C@H]2O)c1 [Example 28]
Task item: Which of the two items, P and Q , has the greater recorded EC50? Identify your pick by its label.
Reply: P

---

- Measured On: hEP2 (Homo sapiens)
- Sequence (P43116 whole entry): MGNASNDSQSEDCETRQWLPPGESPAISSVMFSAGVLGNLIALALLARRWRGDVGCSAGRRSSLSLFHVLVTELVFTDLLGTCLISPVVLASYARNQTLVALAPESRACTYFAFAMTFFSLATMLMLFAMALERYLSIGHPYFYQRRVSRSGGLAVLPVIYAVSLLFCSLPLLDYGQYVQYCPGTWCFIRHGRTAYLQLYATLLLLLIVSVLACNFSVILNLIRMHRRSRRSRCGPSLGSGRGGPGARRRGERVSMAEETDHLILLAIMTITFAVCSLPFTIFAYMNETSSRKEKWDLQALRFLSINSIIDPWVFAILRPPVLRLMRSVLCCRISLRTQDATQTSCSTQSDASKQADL
- Run Description: cAMP assay, hEP2
- Format: cell-based
Measured Metric: EC50 (nM)

Task item: Endpoint output: EC50 of O=C(O)CCC/C=C\C[C@@H]1[C@@H](COc2cccc(Cl)c2)[C@H](O)C[C@H]1Cl . Value?
Reply: 5

a. O=C(O)CCC/C=C\C[C@@H]1[C@@H](COc2cccc3c2CCCC3O)[C@H](O)C[C@H]1Cl (stereo partly drawn)
b. CCCC(O)c1cccc(OC[C@@H]2[C@@H](C/C=C\CCCC(=O)O)[C@H](Cl)C[C@H]2O)c1 (stereo partly drawn)
Task item: Which item exceeds the other in EC50, a or b ? Write down the label of the entry you select.
Reply: b

---

- Measured On: hEP4 (Homo sapiens, UniProt P35408)
- Run Description: FLIPR calcium signal, hEP4
- Assay Setup: HEK-293(EBNA) cells expressing hEP4/Gqs5
pEC50: −log10 of the molar value.
Measured Metric: pEC50

Task item: Need pEC50, item O=C(O)CCC/C=C\C[C@@H]1[C@@H](COc2cc(Cl)cc(CO)c2)[C@H](O)C[C@H]1Cl [Example 65]
Reply: 4.97

P. O=C(O)CCC/C=C\C[C@@H]1[C@@H](COc2cccc(C(F)(F)F)c2)[C@H](O)C[C@H]1Cl [Example 24]
Q. O=C(O)CCC/C=C\C[C@@H]1[C@@H](COc2ccccc2Cl)[C@H](O)C[C@H]1Cl [Example 21]
Task item: Larger number for pEC50: P , or Q ? Identify your selection by its label.
Reply: Q
(Q: 6.35, P: 5.01)

---

- Measured On: hEP4 (Homo sapiens)
- Run Description: FLIPR calcium signal, hEP4
- Assay Setup: HEK-293(EBNA) cells expressing hEP4/Gqs5
Measured Metric: EC50 (nM)

Task item: Field request: EC50 | item: O=C(O)CCC/C=C\C[C@@H]1[C@@H](COc2cccc(O)c2)[C@H](O)C[C@H]1Cl [Example 30]
Reply: 1170

Task item: # EC50 lookup, item O=C(O)CCC/C=C\C[C@@H]1[C@@H](COc2cccc(Cl)c2)[C@H](O)C[C@H]1Cl [Example 22]
Reply: 823
